experimental-target: FruA-His6 (Myxococcus xanthus) (UniProt Q1D7Q3)
Sequence: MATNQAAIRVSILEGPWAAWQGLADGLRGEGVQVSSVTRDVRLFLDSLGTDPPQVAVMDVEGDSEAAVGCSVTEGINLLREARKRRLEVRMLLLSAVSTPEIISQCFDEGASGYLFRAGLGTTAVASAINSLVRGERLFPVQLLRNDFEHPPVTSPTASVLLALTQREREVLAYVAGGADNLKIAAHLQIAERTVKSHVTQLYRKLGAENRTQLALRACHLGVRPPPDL
procedure-text: EMSA
applied-conditions: 2 nM 32P-labeled DNA, 25 C, 15 min, buffer as in cited ref 127 (not given)
value-kind: binding

CGAGCTCCTGTGAACCGAAGTCATGCTGCTGGTAGGAGCCCGCTGGGTCTGCCCAGACCTCGCCAATGAGGCGCTGGTCCATTAATTGCTCAACGCAACAACTTGCGAAGCAGTCTGTCGGCTACTTGACCGTGCTTGCCAGTGAATGAGAAGTGACGCCTGCGTGCTGACCGTAATGGGACAGGCGGGGACCATGTATATGAGGTGGAAGAAGC (double strand) [MXAN_5802 PCR]	no binding
CAAGGTGATGATGTGCGTCGAGGCTATCGGCCATGTGCGGGAGCGTCAATGTTCGGACCGGGCGGAATTCCGGCTGCCCGGGGAGCGGGCAAGCGCCGTCACACAGCCGACGTTTCCGTCACTGAGGGTACGTCGGGTACGTCACTGGCTCGACGGAGATGGGCGGCCAGGAGTGCGGCGTGCGCGGCGCGGGCGGGAGCGAATACAGCGGCTCG (double strand) [frzS PCR]	no binding

====

experimental-target: FruA-His6 (Myxococcus xanthus) (UniProt Q1D7Q3)
Sequence: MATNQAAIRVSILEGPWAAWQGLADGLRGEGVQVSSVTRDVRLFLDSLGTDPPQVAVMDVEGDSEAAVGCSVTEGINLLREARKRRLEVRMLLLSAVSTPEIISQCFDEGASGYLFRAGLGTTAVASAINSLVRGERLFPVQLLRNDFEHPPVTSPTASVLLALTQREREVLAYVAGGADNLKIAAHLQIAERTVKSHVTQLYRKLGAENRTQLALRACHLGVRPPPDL
procedure-text: EMSA
applied-conditions: 2 nM 32P-labeled DNA, 25 C, 15 min, buffer as in cited ref 127 (not given)
value-kind: binding

GGCGAACGGGACTTTCCTTCTCCAAGGTTCGTGCCAGCGGGAATTGAAATGCCGCCGGGACAACACCTCCTGAAATGCCGGGTACTTAGCGCTACAGGCCCGCACCAGAGCCCGTTCTGTGTCCAAAACCTGAAACAGAACGTTCAAACAGTCTGATCAATTTGAACGAAACGTTCAAACCGGGGGCATGAGTGTCGGAGCAG (double strand) [mrpC upstream PCR]	no binding
GGATTTGCCTTTGCACCTCCAGAACCACCAGTGGGTGAAACAATGTCAACGGGAGTCCTTCGCCACGGCCTTGATTGTCCCTTAGCAAACACAGTGAACCGCACAGCGACAAGGCAGGAATTCGCCCACGCTGGACTCACGGCACGTCGGAAGCATCTCTTGGGAATCAAGAATTGAGTGAGGTCCATCGCCCTGCAATCGATGGCAAAGAG (double strand) [pkn8 PCR]	no binding
GATTAGCACTACGCATGCCAACCCAGGTGCGCACTCCAAGCCCCCCAATTCTCAAGGCTTGGAACAATCCCCTCGGCGAGGATGGGTCCAGGGCTGACAAAATTCGGCAGTGACGCTGACGATAACTGTCGATCAGCCTACGCATCCGAAGCGCTCCCGGGCTCCAAGTCATCCGTCAGCCCATGCTTGGCCAACCGGTAGCGGAATGAACGGAACGAAAG (double strand) [pilA PCR]	no binding
GTACCAACTCGCGCACGTCGGGTGCGGGCAGTCCGTAGCGCTGGCCGTTCAGGGTGAACAGCAGCACCTCCGTGGGTGCGGGGGTCATGTCCTGGGACATAAGACGTGGGCGTGGCCACTGTCGAACATTGATGTCGGCCCGCGGTCGCGGTGTCCACCAGTCCTCAGTGGAGGCAGGAGGAGGGGCCCATGGTTCGGGGGGAACACGACAGGTGCTCGCTGTGC (double strand) [cheW6a PCR]	binds

====

experimental-target: FruA-His6 (Myxococcus xanthus) (UniProt Q1D7Q3)
Sequence: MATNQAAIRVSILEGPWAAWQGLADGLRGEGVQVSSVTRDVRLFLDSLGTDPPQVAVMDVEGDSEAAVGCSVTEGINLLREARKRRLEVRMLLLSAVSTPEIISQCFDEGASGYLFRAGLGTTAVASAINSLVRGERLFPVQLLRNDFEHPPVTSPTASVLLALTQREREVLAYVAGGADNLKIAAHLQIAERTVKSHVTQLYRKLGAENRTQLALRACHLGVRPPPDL
procedure-text: EMSA
applied-conditions: 2 nM 32P-labeled DNA, 25 C, 15 min, buffer as in cited ref 127 (not given)
value-kind: binding

CCAGGGAACGTAGAAGTCTGGCAGTTCGAATGGCTGCTTGTTTTTCGCCGTACTCATGGACGCCCCTCGTTGAACTCAGGGGGGCGTTATAGTTAGGCGCTGAACACTTATCCAAGTGTTTCTTGCATAAAAGATTCTCTGGAGAAGTCGCGATTTGCCTGCTGGCGCACGGATTTAGCTCCATCCGTGCGCCGTATTGCTC (double strand) [MXAN_6247 PCR]	binds
GTCTTCCTTGTTGATGAGCCCCGGAGGGGCCATCGCGGTGGGCATAGCGCTCGCAGCGGAGCCCTTCTTCTTCTCATCGGACATGAAATTCAGCCTTTTCTCTTCGACAACCAGTGAACATTTCCAGGTTTTCTGCGGCGGATGAACCAACGTAACAACCAAAACGGACATGGCAAACGCAGTGTGCGTTTTTCCGCCCCCCGTCACCTCTCCAGGGTTCCTCGGAAGTC (double strand) [bsgA PCR]	binds
